These measurements were taken from PubChem BioAssay (NCI).

# Tested on: SF-539 CNS
# assay info: NCI-60 one-dose screen, 48 h
# test settings: 10 µM unless noted
This is part of a sample that, as a whole, favours compounds with a hit. Of some 83,000 tested, about 20% had one in any assay. Activity calls are given as the source filed them. How the source made its calls: active means growth percent below 10; inactive means the rest.
The reply should name one outcome from label 1 for active, label 0 for inactive

### Prompt What call does the record list for Cc1sc2c(c1C)C(c1ccc(Cl)cc1)=N[C@@H](CC(=O)NCCCCCNC(=O)COc1ccc(C3CCC(=O)NC3=O)cc1)c1nnc(C)n1-2 (stereo not given in full) ?
### Response label 0

### Prompt Identify the outcome logged in this assay for the compound shown: COc1ccc(-c2ccnc(SCc3cc4ccccc4[nH]c3=O)n2)cc1OC
### Response label 1

### Prompt What did this assay record as the result for CCCSc1nc(NCCc2c[nH]c3ccccc23)c(C#N)c(-c2ccccc2)n1 ?
### Response label 0

### Prompt Hi team, can someone confirm the assay call for C=C1CCC2C3(C)COC(c4ccccc4F)OC3CCC2(C)C1CC(O)C1=CCOC1=O (stereo not given) ?
### Response label 0

### Prompt Called result for N#Cc1c(-c2ccc(Br)cc2)nc2n[nH]c(-c3ccc(Br)cc3)c2c1-c1ccc(F)cc1
### Response label 0
